Target: T1, 14-3-3γ-R57C-nLuc (human, UniProt P61981 2-247, R57C)
T1 sequence: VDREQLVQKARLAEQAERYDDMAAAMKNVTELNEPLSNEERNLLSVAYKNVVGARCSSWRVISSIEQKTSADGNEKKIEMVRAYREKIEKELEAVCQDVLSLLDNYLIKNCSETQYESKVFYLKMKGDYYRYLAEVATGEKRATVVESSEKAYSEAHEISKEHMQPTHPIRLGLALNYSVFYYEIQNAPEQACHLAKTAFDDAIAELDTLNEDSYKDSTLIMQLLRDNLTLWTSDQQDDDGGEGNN
Assay: nafamostat 25 uM; apparent, Bmax set to wild-type
Primed or numbered codes have the meaning given here. Where no end group is shown, it is not given here. [ ]: non-standard residue; d: D form. FITC′ = fluorescein isothiocyanate label at the N-terminus; pS = N[C@@H](COP(=O)(O)O)C(=O)O
measure name: Kd (nM)

[P] {FITC′}-MPTPDATTPQAKGFRRAV[pS]ELDAKQAEAIMSPRFIGRRQSLIE (also called phosphopeptide derived from tyrosine hydroxylase (TH); source: synthetic peptide (AbClonal)) [FITC-pTH]
[Q] {FITC′}-QRHSN[pS]LGPIFDGSGGGSGIKARAS[pS]SPVILVGTHLD (leucine-rich repeat kinase 2 (LRRK2), human; also called FITC-LRRK2; source: synthetic peptide (AbClonal)) [FITC-ppLRRK2]
I'm curious, which of these has a smaller Kd number: P or Q ? Reply briefly: the label of your chosen item. Q
(Q: 44.1 nM, P: 5280 nM)
